Would you kindly list logD for each of these compounds?
test: n-Octanol/water partition coefficient, log D of compound at pH 7.4 by UV-HPLC analysis
Where a SMILES comes first, the peptide text is derived from it. [ ]: non-standard residue; d: D form. The star is where a group is joined. Trt = c1ccc(C(c2ccccc2)(c2ccccc2)*)cc1; Sar = CNCC(=O)O; tBu = CC(C)(C)*
Give the figure only, with no unit attached.

Please fill in: logD reported for CN1CC(=O)N[C@@H](CSC(c2ccccc2)(c2ccccc2)c2ccccc2)C(=O)N(C)CC(=O)N[C@@H](CSC(c2ccccc2)(c2ccccc2)c2ccccc2)C(=O)N(C)CC(=O)N[C@@H](COC(C)(C)C)C1=O (cyclo(C(Trt)[Sar]C(Trt)[Sar]S(tBu)[Sar])) = 6.3

logD measured on CN1CC(=O)N[C@@H](CSC(c2ccccc2)(c2ccccc2)c2ccccc2)C(=O)NCC(=O)N[C@@H](CSC(c2ccccc2)(c2ccccc2)c2ccccc2)C(=O)NCC(=O)N[C@@H](CCC(=O)O)C1=O (cyclo(C(Trt)GC(Trt)GE[Sar])) = 3.1

----------
test: n-Octanol/water partition coefficient, log D of compound at pH 7.4 by UV-HPLC analysis
Where a SMILES comes first, the peptide text is derived from it. [ ]: non-standard residue; d: D form. The star is where a group is joined. Trt = c1ccc(C(c2ccccc2)(c2ccccc2)*)cc1; Sar = CNCC(=O)O; tBu = CC(C)(C)*
Quantity Name: logD
// no unit, no text: just the number

The value of logD measured for the compound C[C@@H](OC(C)(C)C)[C@@H]1NC(=O)CNC(=O)[C@H](CSC(c2ccccc2)(c2ccccc2)c2ccccc2)NC(=O)CNC(=O)[C@H](CSC(c2ccccc2)(c2ccccc2)c2ccccc2)NC(=O)CN(C)C1=O (cyclo(C(Trt)GC(Trt)GT(tBu)[Sar])) turned out to be 5.8

Looking up CN1CC(=O)N[C@@H](CSC(c2ccccc2)(c2ccccc2)c2ccccc2)C(=O)N[C@@H](CSC(c2ccccc2)(c2ccccc2)c2ccccc2)C(=O)N(C)CC(=O)N[C@@H](COC(C)(C)C)C1=O (cyclo(C(Trt)C(Trt)[Sar]S(tBu)[Sar])) , I found its logD recorded as 7.7

Data point: C[C@@H](OC(C)(C)C)[C@@H]1NC(=O)CN(C)C(=O)[C@H](CSC(c2ccccc2)(c2ccccc2)c2ccccc2)NC(=O)CNC(=O)[C@H](CSC(c2ccccc2)(c2ccccc2)c2ccccc2)NC(=O)CN(C)C1=O (cyclo(C(Trt)GC(Trt)[Sar]T(tBu)[Sar])) ; logD = 6

Recorded logD (compound C[C@@H](OC(C)(C)C)[C@@H]1NC(=O)CN(C)C(=O)[C@H](CSC(c2ccccc2)(c2ccccc2)c2ccccc2)NC(=O)CN(C)C(=O)[C@H](CSC(c2ccccc2)(c2ccccc2)c2ccccc2)NC(=O)CN(C)C1=O (cyclo(C(Trt)[Sar]C(Trt)[Sar]T(tBu)[Sar])) ): 3.7

Given item CN1CC(=O)N[C@@H](CSC(c2ccccc2)(c2ccccc2)c2ccccc2)C(=O)N(C)CC(=O)N[C@@H](CSC(c2ccccc2)(c2ccccc2)c2ccccc2)C(=O)N(C)CC(=O)N[C@@H](CCC(=O)O)C1=O (cyclo(C(Trt)[Sar]C(Trt)[Sar]E[Sar])) , the value recorded as its logD is 3.9

Sure, the documented logD for CN1CC(=O)N[C@@H](CSC(c2ccccc2)(c2ccccc2)c2ccccc2)C(=O)N[C@@H](Cc2ccccc2)C(=O)N[C@@H](COC(C)(C)C)C(=O)N(C)CC(=O)N[C@@H](CSC(c2ccccc2)(c2ccccc2)c2ccccc2)C1=O (cyclo(C(Trt)FS(tBu)[Sar]C(Trt)[Sar])) is 8
